# EXPERIMENTAL_TARGET: Fc-fusion protein of human PSMA (hPSMA-Fc) (Homo sapiens, UniProt Q04609)
# Construct: purchased Acro Biosystems PSA-H5264
# Sequence (Q04609 44-750 limits assumed): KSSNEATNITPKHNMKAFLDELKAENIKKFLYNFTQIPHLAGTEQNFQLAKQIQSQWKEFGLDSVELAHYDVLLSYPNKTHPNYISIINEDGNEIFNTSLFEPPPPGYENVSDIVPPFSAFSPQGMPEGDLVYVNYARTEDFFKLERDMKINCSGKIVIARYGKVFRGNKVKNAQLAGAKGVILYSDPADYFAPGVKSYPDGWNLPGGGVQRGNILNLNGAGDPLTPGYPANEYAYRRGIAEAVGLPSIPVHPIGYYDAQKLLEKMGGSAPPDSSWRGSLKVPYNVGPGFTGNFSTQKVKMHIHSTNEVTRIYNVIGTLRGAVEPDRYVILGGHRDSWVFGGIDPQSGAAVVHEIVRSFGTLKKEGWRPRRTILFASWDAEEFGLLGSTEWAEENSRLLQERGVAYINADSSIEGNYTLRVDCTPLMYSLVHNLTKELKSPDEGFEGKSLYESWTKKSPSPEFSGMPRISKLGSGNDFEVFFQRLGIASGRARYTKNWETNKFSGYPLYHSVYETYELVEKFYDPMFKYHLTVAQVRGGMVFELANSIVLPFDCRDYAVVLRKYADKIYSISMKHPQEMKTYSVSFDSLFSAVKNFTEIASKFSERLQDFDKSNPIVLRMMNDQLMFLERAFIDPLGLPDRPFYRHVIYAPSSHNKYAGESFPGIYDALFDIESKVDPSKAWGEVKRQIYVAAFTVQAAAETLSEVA
# EXPERIMENT_DESCRIPTION: Surface plasmon resonance assay (Biacore T200, single cycle kinetic)
# Format: binding
# RUN_PARAMETERS: PSMA SPR assay, hPSMA-Fc, 25° C.; pKD category; read-out: pKD CAT (converted)
Numbered stars: 1 amine (or outer) side, 2 acyl side, 3 side chain; on linkers, the order of the positions; unused ones are H or OH. Bridge positions count the residues as written; N and C are the ends. Square brackets hold non-standard residues; d marks the D form. Peptide text beside a SMILES is read from it. * marks the point of attachment. TtdsdLys(DOTA)NH2 = NC(=O)[C@@H](CCCCNC(=O)CN1CCN(CC(=O)O)CCN(CC(=O)O)CCN(CC(=O)O)CC1)NC(=O)CCC(=O)NCCCOCCOCCOCCCN*; DOTA = O=C(O)CN1CCN(CC(=O)O)CCN(CC(=O)*)CCN(CC(=O)O)CC1; Phe(3-Cl) = N[C@@H](Cc1cccc(Cl)c1)C(=O)O; Phe(4-Cl) = N[C@@H](Cc1ccc(Cl)cc1)C(=O)O; Propanoyl(3-SO2NH2) = NS(=O)(=O)CCC(=O)*; Ethylenediamine = C(CN[*:2])N[*:1]; NMeF = CN[C@@H](Cc1ccccc1)C(=O)O; X1 = O=C(CC1CCN([*:1])CC1)[*:2]; Cit = NC(=O)NCCC[C@H](N)C(=O)O; αMeD = C[C@](N)(CC(=O)O)C(=O)O; Tle = CC(C)(C)[C@H](N)C(=O)O; Nle = CCCC[C@H](N)C(=O)O; Aib = CC(C)(N)C(=O)O; GABA = NCCCC(=O)O
Form field: Kd (one value per entry).
READOUT: Kd

[
  {
    "COMPOUND": "CCCC[C@H](NC(=O)[C@@H]1CSSC[C@H](NC(=O)[C@H](Cc2ccccc2)NC(=O)[C@H](C)NC(=O)[C@@H](NC(C)=O)[C@@H](C)O)C(=O)N[C@@H](CCCCN)C(=O)N[C@@H](CCCNC(=N)N)C(=O)N[C@@H](C)C(=O)N[C@@H](CC(N)=O)C(=O)N1)C(=O)N[C@H](C(=O)NCCCC(=O)O)[C@@H](C)O [PSM-0313] (Ac-TAFCKRANC[Nle]T[GABA]-OH; disulfide 4-9)",
    "REPORTED": "0.126 to 0.501 µM"
  },
  {
    "COMPOUND": "CC(=O)N[C@H](C(=O)NC(C)(C)C(=O)N[C@@H](Cc1ccc(Cl)cc1)C(=O)N[C@H]1CSSC[C@@H](C(=O)N[C@H](C(=O)NCCNC(=O)CN2CCN(CC(=O)O)CCN(CC(=O)O)CCN(CC(=O)O)CC2)C(C)(C)C)NC(=O)[C@H](CC(N)=O)NC(=O)C(C)(C)NC(=O)[C@H](CCCNC(=N)N)NC(=O)[C@H](CCCCN)NC1=O)[C@@H](C)O [PSM-0269] (Ac-T[Aib][Phe(4-Cl)]CKR[Aib]NC[Tle]-{Ethylenediamine-DOTA}; disulfide 4-9)",
    "REPORTED": "< 0.0126 µM"
  },
  {
    "COMPOUND": "CC(=O)N[C@H](C(=O)NC(C)(C)C(=O)N[C@@H](Cc1ccccc1)C(=O)N[C@H]1CSSC[C@@H](C(=O)N[C@H](C(=O)N[C@H](C(=O)N[C@@H](CC(=O)O)C(N)=O)[C@@H](C)O)C(C)(C)C)NC(=O)[C@H](CC(N)=O)NC(=O)[C@H](C)NC(=O)[C@H](CCCNC(N)=O)NC(=O)[C@H](CCCCN)NC1=O)[C@@H](C)O [PSM-0307] (Ac-T[Aib]FCK[Cit]ANC[Tle]TD-NH2; disulfide 4-9)",
    "REPORTED": "< 0.0126 µM"
  },
  {
    "COMPOUND": "CC(=O)N[C@H](C(=O)NC(C)(C)C(=O)N[C@@H](Cc1cccc(Cl)c1)C(=O)N[C@H]1CSSC[C@@H](C(=O)N[C@H](C(=O)N[C@H](C(=O)N2CCC(CC(=O)N[C@H](CCCCNC(=O)CN3CCN(CC(=O)O)CCN(CC(=O)O)CCN(CC(=O)O)CC3)C(N)=O)CC2)[C@@H](C)O)C(C)(C)C)NC(=O)[C@H](CC(N)=O)NC(=O)C(C)(C)NC(=O)[C@H](CCCNC(N)=O)NC(=O)[C@H](CCCCN)NC1=O)[C@@H](C)O [PSM-0275] (Ac-T[Aib][Phe(3-Cl)]CK[Cit][Aib]NC[Tle]T[X1][dK](DOTA)-NH2; disulfide 4-9)",
    "REPORTED": "0.0126 to 0.126 µM"
  },
  {
    "COMPOUND": "C[C@@H](O)[C@H](NC(=O)[C@@H](NC(=O)[C@@H]1CSSC[C@H](NC(=O)[C@H](Cc2ccc(Cl)cc2)NC(=O)C(C)(C)NC(=O)[C@@H](NC(=O)CC2CCN(C(=O)CN3CCN(CC(=O)O)CCN(CC(=O)O)CCN(CC(=O)O)CC3)CC2)[C@@H](C)O)C(=O)N[C@@H](CCCCN)C(=O)N[C@@H](CCCNC(=N)N)C(=O)N[C@@](C)(CC(=O)O)C(=O)N[C@@H](CC(N)=O)C(=O)N1)C(C)(C)C)C(N)=O [PSM-0302] ({DOTA}-[X1]T[Aib][Phe(4-Cl)]CKR[αMeD]NC[Tle]T-NH2; disulfide 5-10)",
    "REPORTED": "< 0.0126 µM"
  },
  {
    "COMPOUND": "CC(=O)N[C@H](C(=O)N[C@@H](C)C(=O)N(C)[C@@H](Cc1ccccc1)C(=O)N[C@H]1CSSC[C@@H](C(=O)N[C@H](C(=O)N[C@H](C(N)=O)[C@@H](C)O)C(C)(C)C)NC(=O)[C@H](CC(N)=O)NC(=O)C(C)(C)NC(=O)[C@H](CCCNC(=N)N)NC(=O)[C@H](CCCCN)NC1=O)[C@@H](C)O [PSM-0319] (Ac-TA[NMeF]CKR[Aib]NC[Tle]T-NH2; disulfide 4-9)",
    "REPORTED": "0.0126 to 0.126 µM"
  },
  {
    "COMPOUND": "C[C@@H](O)[C@H](NC(=O)[C@@H](NC(=O)[C@@H]1CSSC[C@H](NC(=O)[C@H](Cc2ccc(Cl)cc2)NC(=O)C(C)(C)NC(=O)CCS(N)(=O)=O)C(=O)N[C@@H](CCCCN)C(=O)N[C@@H](CCCNC(=N)N)C(=O)NC(C)(C)C(=O)N[C@@H](CC(N)=O)C(=O)N1)C(C)(C)C)C(=O)N[C@H](CCCCNC(=O)CN1CCN(CC(=O)O)CCN(CC(=O)O)CCN(CC(=O)O)CC1)C(N)=O [PSM-0328] ({Propanoyl(3-SO2NH2)}-[Aib][Phe(4-Cl)]CKR[Aib]NC[Tle]T[dK](DOTA)-NH2; disulfide 3-8)",
    "REPORTED": "< 0.0126 µM"
  },
  {
    "COMPOUND": "CC(=O)N[C@H](C(=O)N[C@@H](C)C(=O)N[C@@H](Cc1ccccc1)C(=O)N[C@H]1CSSC[C@@H](C(=O)N[C@@H](CC(C)C)C(=O)N[C@H](C(=O)N[C@@H](CC(=O)O)C(=O)NCCCOCCOCCOCCCNC(=O)CCC(=O)N[C@H](CCCCNC(=O)CN2CCN(CC(=O)O)CCN(CC(=O)O)CCN(CC(=O)O)CC2)C(N)=O)[C@@H](C)O)NC(=O)[C@H](CC(N)=O)NC(=O)[C@H](C)NC(=O)[C@H](CCCNC(=N)N)NC(=O)[C@H](CCCCN)NC1=O)[C@@H](C)O [PSM-0330] (Ac-TAFCKRANCLTD-{TtdsdLys(DOTA)NH2}; disulfide 4-9)",
    "REPORTED": "0.0126 to 0.126 µM"
  },
  {
    "COMPOUND": "CC(=O)N[C@H](C(=O)NC(C)(C)C(=O)N[C@@H](Cc1ccccc1)C(=O)N[C@H]1CSSC[C@@H](C(=O)N[C@H](C(=O)N[C@H](C(=O)N[C@@H](CC(=O)O)C(N)=O)[C@@H](C)O)C(C)(C)C)NC(=O)[C@H](CC(N)=O)NC(=O)C(C)(C)NC(=O)[C@H](CCC(N)=O)NC(=O)[C@H](CCCCN)NC1=O)[C@@H](C)O [PSM-0334] (Ac-T[Aib]FCKQ[Aib]NC[Tle]TD-NH2; disulfide 4-9)",
    "REPORTED": "0.0126 to 0.126 µM"
  }
]
